Molecular target: T1, Macaca fascicularis IL2Rγ extracellular domain expressed with a C-terminal myc-myc-hexahistidine tag (Macaca fascicularis)
T1 construct: also called mfIL-2Rg-MMH; mfIL-2RG-MMH
T1 chain: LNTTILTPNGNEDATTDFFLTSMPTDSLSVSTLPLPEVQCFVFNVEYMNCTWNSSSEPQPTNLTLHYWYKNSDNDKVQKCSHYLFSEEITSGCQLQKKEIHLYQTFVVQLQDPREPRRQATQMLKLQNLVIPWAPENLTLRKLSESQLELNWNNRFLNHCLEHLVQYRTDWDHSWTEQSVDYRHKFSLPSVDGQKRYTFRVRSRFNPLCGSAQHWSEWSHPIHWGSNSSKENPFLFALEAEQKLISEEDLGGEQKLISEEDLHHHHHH
Assay: SPR Biacore 4000, mAb captured by anti-hFc, 37C, dissociation in PBS-T pH 6.0
readout.label: 100 nM Ag Bound (RU)
Unit RU implied. Number only.

{"columns": ["binder", "100 nM Ag Bound (RU)"],
 "data": [
  ["H4H13541P (antibody, human IgG4 S228P, kappa, V domains shown, anti-IL2Rγ monoclonal antibody expressed with human IgG4 Fc) VH: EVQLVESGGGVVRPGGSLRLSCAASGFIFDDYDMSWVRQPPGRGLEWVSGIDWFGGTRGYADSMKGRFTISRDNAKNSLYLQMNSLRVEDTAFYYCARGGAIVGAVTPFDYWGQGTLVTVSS VL: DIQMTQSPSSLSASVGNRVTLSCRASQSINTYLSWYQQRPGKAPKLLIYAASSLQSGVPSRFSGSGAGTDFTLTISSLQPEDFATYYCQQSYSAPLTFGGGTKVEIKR", 91]
]}

API: the following record is the query input.
Request: Identify measured 100 nM Ag Bound (RU) corresponding to H4H12900P (antibody, human IgG4 S228P, kappa, V domains shown, anti-IL2Rγ monoclonal antibody expressed with human IgG4 Fc) VH: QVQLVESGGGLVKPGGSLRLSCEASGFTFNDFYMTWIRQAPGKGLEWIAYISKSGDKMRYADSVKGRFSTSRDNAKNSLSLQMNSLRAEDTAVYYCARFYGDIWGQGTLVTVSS VL: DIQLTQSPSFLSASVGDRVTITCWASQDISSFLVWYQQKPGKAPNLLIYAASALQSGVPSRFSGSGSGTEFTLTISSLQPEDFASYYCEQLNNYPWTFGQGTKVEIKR
Result: 130
